system tested: full-length A/Udorn/72 M2 WT (Influenza A virus, UniProt P0DOF5)
Sequence (P0DOF5 whole entry): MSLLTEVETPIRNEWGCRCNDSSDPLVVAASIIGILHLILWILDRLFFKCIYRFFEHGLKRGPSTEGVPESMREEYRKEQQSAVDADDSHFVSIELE
conditions: calculated from the ratio koff/kon
pKd: −log10 of the molar value.

{"columns": ["compound", "system tested", "pKd"],
 "data": [
  ["c1csc(-c2cc(CNC34CC5CC(CC(C5)C3)C4)on2)c1 [Compound 6]", "full-length A/Udorn/72 M2 WT (Influenza A virus, UniProt P0DOF5)", "< 4.00"]
]}

Entry source: paper PMC8051587
